Listing of entries alongside the reported CL/F.
# Assay Summary: Multi-component pharmacokinetics of AAs in rats after oral administration of AF and HAF extracts (HPLC-MS/MS of plasma)
# Set-up: species or system Sprague–Dawley (SD) rats
# Condition Parameters: Sprague-Dawley, rat, in vivo, 3 mg/kg, AF extract, low dose (3.0 mg/kg as AA I), analyte dose mg/kg: AA I 3.0, AA II 0.21, AA C 1.42, AA D 1.60, 7-OH AA I 2.33, n = 6, read-out: CLz/F (converted)
Output spec: scalar in mL/min/kg, unitless text.

COc1c(O)ccc2c1cc([N+](=O)[O-])c1c(C(=O)O)cc3c(c12)OCO3 : 71.5
COc1cc(O)cc2c1cc([N+](=O)[O-])c1c(C(=O)O)cc3c(c12)OCO3 : 168
COc1cccc2c1cc([N+](=O)[O-])c1c(C(=O)O)cc3c(c12)OCO3 : 9.5

// next item, CL/F requested
(Q) Which measured CL/F value corresponds to O=C(O)c1cc2c(c3c1c([N+](=O)[O-])cc1ccccc13)OCO2 ?
(A) 1.17

----------
# Assay Summary: Multi-component pharmacokinetics of AAs in rats after oral administration of AF and HAF extracts (HPLC-MS/MS of plasma)
# Design: species or system Sprague–Dawley (SD) rats
# Condition Parameters: Sprague-Dawley, rat, in vivo, 8 mg/kg, AF extract, mid dose (8.0 mg/kg as AA I), analyte dose mg/kg: AA I 8.0, AA II 0.56, AA C 3.78, AA D 4.26, 7-OH AA I 6.22, n = 6, read-out: Vz/F
List of Vd/F values.
State the value, then name its unit.

(Q) Endpoint output: Vd/F of COc1cc(O)cc2c1cc([N+](=O)[O-])c1c(C(=O)O)cc3c(c12)OCO3 . Value?
(A) 75.7 L/kg

(Q) For the compound COc1c(O)ccc2c1cc([N+](=O)[O-])c1c(C(=O)O)cc3c(c12)OCO3 , what Vd/F is on record?
(A) 26.1 L/kg

(Q) Entry O=C(O)c1cc2c(c3c1c([N+](=O)[O-])cc1ccccc13)OCO2 has what Vd/F?
(A) 0.48 L/kg

(Q) Query (compound): COc1cccc2c1cc([N+](=O)[O-])c1c(C(=O)O)cc3c(c12)OCO3 ; field requested: Vd/F
(A) 5.4 L/kg

----------
# Assay Summary: Stability of AAs in rat plasma (QC samples, HPLC-MS/MS)
# Format: in vitro ADME
# Condition Parameters: fresh rat plasma at room temperature for 24 h before sample preparation; low QC conc ng/mL: AA I 1.83, AA II 8.00, AA C 186.3, AA D 36.8, 7-OH AA I 82.0; n = 5
# Procedure: The QC samples were assayed under several different conditions to evaluate the stability of AAs in rat plasma. The freeze-thaw stability of the analyte was determined over three freeze-thaw cycles. In each freeze-thaw cycle, the samples were frozen and stored at –20 °C for 24 h, then thawed at room temperature. […] Stability was evaluated by comparing the mean concentration of the stored samples with the mean concentration of those prepared freshly. […]
Readout Kind: Short-term stability (RSD/%)
Field format: number, assumed %, no unit text.

O=C(O)c1cc2c(c3c1c([N+](=O)[O-])cc1ccccc13)OCO2 : 5.0
COc1cccc2c1cc([N+](=O)[O-])c1c(C(=O)O)cc3c(c12)OCO3 : 0.58
COc1cc(O)cc2c1cc([N+](=O)[O-])c1c(C(=O)O)cc3c(c12)OCO3 : 5.0

API: the following record is the query input.
(Q) What value of measured Short-term stability (RSD/%) is listed for COc1c(O)ccc2c1cc([N+](=O)[O-])c1c(C(=O)O)cc3c(c12)OCO3 ?
(A) 7.1

----------
# Cmax values compiled below
# Assay Summary: Multi-component pharmacokinetics of AAs in rats after oral administration of AF and HAF extracts (HPLC-MS/MS of plasma)
# Set-up: species or system Sprague–Dawley (SD) rats
# Condition Parameters: Sprague-Dawley, rat, in vivo, 8 mg/kg, AF extract, mid dose (8.0 mg/kg as AA I), analyte dose mg/kg: AA I 8.0, AA II 0.56, AA C 3.78, AA D 4.26, 7-OH AA I 6.22, n = 6
Dear colleague, please return just the value in ng/mL, with no unit written.

Worked examples follow.
COc1c(O)ccc2c1cc([N+](=O)[O-])c1c(C(=O)O)cc3c(c12)OCO3 : 404
O=C(O)c1cc2c(c3c1c([N+](=O)[O-])cc1ccccc13)OCO2 : 1140
COc1cc(O)cc2c1cc([N+](=O)[O-])c1c(C(=O)O)cc3c(c12)OCO3 : 126

(Q) What Cmax value was documented for this compound, COc1cccc2c1cc([N+](=O)[O-])c1c(C(=O)O)cc3c(c12)OCO3 ?
(A) 3820

----------
# Assay Summary: Multi-component pharmacokinetics of AAs in rats after oral administration of AF and HAF extracts (HPLC-MS/MS of plasma)
# Set-up: species or system Sprague–Dawley (SD) rats
# Condition Parameters: Sprague-Dawley, rat, in vivo, 8 mg/kg, HAF extract, mid dose (8.0 mg/kg as AA I), analyte dose mg/kg: AA I 8.0, AA II 0.69, AA C 4.09, AA D 4.03, 7-OH AA I 6.62, n = 6
Readout Kind: Tmax (min)
Output spec: scalar in min, unitless text.

Here are 3 molecules together with their reported answers.
COc1c(O)ccc2c1cc([N+](=O)[O-])c1c(C(=O)O)cc3c(c12)OCO3 : 40.2
O=C(O)c1cc2c(c3c1c([N+](=O)[O-])cc1ccccc13)OCO2 : 48.6
COc1cc(O)cc2c1cc([N+](=O)[O-])c1c(C(=O)O)cc3c(c12)OCO3 : 45

Okay, now this molecule:
(Q) Please give the measured Tmax for this molecule: COc1cccc2c1cc([N+](=O)[O-])c1c(C(=O)O)cc3c(c12)OCO3
(A) 25.2

----------
# Assay Summary: Multi-component pharmacokinetics of AAs in rats after oral administration of AF and HAF extracts (HPLC-MS/MS of plasma)
# Parameters: species or system Sprague–Dawley (SD) rats
# Condition Parameters: Sprague-Dawley, rat, in vivo, 3 mg/kg, HAF extract, low dose (3.0 mg/kg as AA I), analyte dose mg/kg: AA I 3.0, AA II 0.26, AA C 1.53, AA D 1.51, 7-OH AA I 2.48, n = 6
# Cmax per record follows
Give your result as the value with the unit written after it.

Worked cases, answers included:
COc1cccc2c1cc([N+](=O)[O-])c1c(C(=O)O)cc3c(c12)OCO3 : 1070 ng/mL
O=C(O)c1cc2c(c3c1c([N+](=O)[O-])cc1ccccc13)OCO2 : 293 ng/mL
COc1cc(O)cc2c1cc([N+](=O)[O-])c1c(C(=O)O)cc3c(c12)OCO3 : 58.6 ng/mL

(Q) Data request, read-out Cmax, for COc1c(O)ccc2c1cc([N+](=O)[O-])c1c(C(=O)O)cc3c(c12)OCO3
(A) 216 ng/mL

----------
# Assay Summary: Multi-component pharmacokinetics of AAs in rats after oral administration of AF and HAF extracts (HPLC-MS/MS of plasma)
# Parameters: species or system Sprague–Dawley (SD) rats
# Condition Parameters: Sprague-Dawley, rat, in vivo, 15 mg/kg, AF extract, high dose (15.0 mg/kg as AA I), analyte dose mg/kg: AA I 15.0, AA II 1.05, AA C 7.09, AA D 8.00, 7-OH AA I 11.66, n = 6
Each entry below lists one item and its recorded Cmax value.
Give the quantity in ng/mL, number only.

COc1cccc2c1cc([N+](=O)[O-])c1c(C(=O)O)cc3c(c12)OCO3 [AA I] : 5890
COc1cc(O)cc2c1cc([N+](=O)[O-])c1c(C(=O)O)cc3c(c12)OCO3 [AA D] : 155
O=C(O)c1cc2c(c3c1c([N+](=O)[O-])cc1ccccc13)OCO2 [AA II] : 1520

Switching to the query record.
(Q) Given COc1c(O)ccc2c1cc([N+](=O)[O-])c1c(C(=O)O)cc3c(c12)OCO3 [7-OH AA I] , state its recorded Cmax.
(A) 566

----------
# Assay Summary: Multi-component pharmacokinetics of AAs in rats after oral administration of AF and HAF extracts (HPLC-MS/MS of plasma)
# Set-up: species or system Sprague–Dawley (SD) rats
# Condition Parameters: Sprague-Dawley, rat, in vivo, 15 mg/kg, AF extract, high dose (15.0 mg/kg as AA I), analyte dose mg/kg: AA I 15.0, AA II 1.05, AA C 7.09, AA D 8.00, 7-OH AA I 11.66, n = 6, read-out: CLz/F (converted)
This section presents molecules with their documented CL/F values.
Quick note: give the figure in mL/min/kg, leave out the unit.

(Q) For the molecule O=C(O)c1cc2c(c3c1c([N+](=O)[O-])cc1ccccc13)OCO2 , what CL/F is on record?
(A) 1.83

(Q) Reported CL/F, molecule COc1cc(O)cc2c1cc([N+](=O)[O-])c1c(C(=O)O)cc3c(c12)OCO3 : ____
(A) 560

(Q) Could you tell me which CL/F is on file for COc1cccc2c1cc([N+](=O)[O-])c1c(C(=O)O)cc3c(c12)OCO3 ?
(A) 14.5

(Q) GET /values?readout=CL/F&item= COc1c(O)ccc2c1cc([N+](=O)[O-])c1c(C(=O)O)cc3c(c12)OCO3
(A) 174
